Test system: rodent lifetime carcinogenesis bioassay, tumor incidence TD50
Experiment: carcinogenic potency in animals, long-term in vivo studies, CPDB compilation (AID 1745844)
Conditions: mouse; strain NMRI; both sexes; in feed; site: any site (literature study); lesion: one or several types; types not named; dosed 104 weeks; study length 104 weeks
The source made the active and inactive calls. The rule behind the calls is not given here.
endpoint: TD50

**Query** API: value(readout= TD50, system= rodent lifetime carcinogenesis bioassay, tumor incidence TD50, query= CC(=O)C(N=Nc1ccc(Cl)cc1Cl)C(=O)Nc1ccc(-c2ccc(NC(=O)C(N=Nc3ccc(Cl)cc3Cl)C(C)=O)c(C)c2)cc1C (stereo unspecified) )
**Result** 11700 mg/kg/day (inactive)

---

Tested on: rodent lifetime carcinogenesis bioassay, tumor incidence TD50
Experiment: carcinogenic potency in animals, long-term in vivo studies, CPDB compilation (AID 1745844)
Conditions: mouse; strain B6C3F1; males; in feed; site: lung; lesion: alveolar/bronchiolar adenoma + alveolar/bronchiolar carcinoma; dosed 80 weeks; study length 92 weeks
endpoint: TD50 (mg/kg/day)
Write the number in mg/kg/day without appending the unit.

**Query** Need TD50 of COP(=O)(OC)OC(=CCl)c1cc(Cl)c(Cl)cc1Cl , thanks.
**Result** 401000

---

Tested on: rodent lifetime carcinogenesis bioassay, tumor incidence TD50
Assay: carcinogenic potency in animals, long-term in vivo studies, CPDB compilation (AID 1745844)
Conditions: mouse; strain B6C3F1; females; in feed; site: liver; lesion: hepatocellular adenoma + hepatocellular carcinoma + neoplastic nodule; dosed 78 weeks; study length 96 weeks
endpoint: TD50 (mg/kg/day)
Write the number in mg/kg/day without appending the unit.

**Query** Need TD50 of COc1ccc(N)cc1N , thanks.
**Result** 7350

**Query** Need TD50 of O=[N+]([O-])c1ccc2c3c(cccc13)CC2 , thanks.
**Result** 45.8

**Query** Need TD50 of Cc1ccc([N+](=O)[O-])cc1N , thanks.
**Result** 288

---

Tested on: rodent lifetime carcinogenesis bioassay, tumor incidence TD50
Assay: carcinogenic potency in animals, long-term in vivo studies, CPDB compilation (AID 1745844)
Details: rat; strain Fischer 344; males; in feed; site: any site (literature study); lesion: several types; types named in the paper; dosed 105 weeks; study length 104 weeks
Calls of active or inactive are those of the source. No rule for the calls is given here.
endpoint: TD50

**Query** Need TD50 of ClC1=C(Cl)[C@]2(Cl)[C@@H]3[C@@H]4C[C@@H]([C@H]5O[C@@H]45)[C@@H]3[C@@]1(Cl)C2(Cl)Cl , thanks.
**Result** 7.28 mg/kg/day (inactive)

---

System: rodent lifetime carcinogenesis bioassay, tumor incidence TD50
Test: carcinogenic potency in animals, long-term in vivo studies, CPDB compilation (AID 1745844)
Conditions: monkey; strain Rhesus [Macaca mulatta]; both sexes; in feed; site: any site (literature study); lesion: malignant tumor; dosed 258 weeks; study length 1019 weeks
endpoint: TD50 (mg/kg/day)
Write the number in mg/kg/day without appending the unit.

**Query** Need TD50 of CN(C)c1ccc(N=Nc2ccccc2)cc1 , thanks.
**Result** 17.2

---

System: rodent lifetime carcinogenesis bioassay, tumor incidence TD50
Test: carcinogenic potency in animals, long-term in vivo studies, CPDB compilation (AID 1745844)
Conditions: rat; strain Fischer 344; males; by gavage; site: lung; lesion: adenocarcinoma; dosed 30 weeks; study length 112 weeks
endpoint: TD50

**Query** Need TD50 of CCCCCCCCCCCCN(C)N=O , thanks.
**Result** 6.54 mg/kg/day

---

Test system: rodent lifetime carcinogenesis bioassay, tumor incidence TD50
Experiment: carcinogenic potency in animals, long-term in vivo studies, CPDB compilation (AID 1745844)
Conditions: rat; strain Wistar; females; in feed; site: liver; lesion: liver-cell carcinoma; dosed 104 weeks; study length 130 weeks
The source made the active and inactive calls. No rule for the calls is given here.
endpoint: TD50

**Query** Need TD50 of Cc1c(N(C)CS(=O)(=O)O)c(=O)n(-c2ccccc2)n1C , thanks.
**Result** 8330 mg/kg/day (inactive)

---

System: rodent lifetime carcinogenesis bioassay, tumor incidence TD50
Experiment: carcinogenic potency in animals, long-term in vivo studies, CPDB compilation (AID 1745844)
Conditions: rat; strain Sprague-Dawley Spartan; females; in feed; site: hard palate/nasal turbinates; lesion: squamous-cell carcinoma, stratified; dosed 103 weeks; study length 103 weeks
endpoint: TD50

**Query** Need TD50 of Clc1cc2c(cc1Cl)Oc1cc(Cl)c(Cl)cc1O2 , thanks.
**Result** 0.000205 mg/kg/day

---

Tested on: rodent lifetime carcinogenesis bioassay, tumor incidence TD50
Experiment: carcinogenic potency in animals, long-term in vivo studies, CPDB compilation (AID 1745844)
Conditions: hamster; strain Syrian Golden; males; in drinking water; site: cecum; lesion: adenocarcinoma; dosed 91 weeks; study length 91 weeks
endpoint: TD50 (mg/kg/day)
Write the number in mg/kg/day without appending the unit.

**Query** Need TD50 of CN(C)N , thanks.
**Result** 322

---

System: rodent lifetime carcinogenesis bioassay, tumor incidence TD50
Experiment: carcinogenic potency in animals, long-term in vivo studies, CPDB compilation (AID 1745844)
Conditions: rat; strain Colworth (Wistar derived); males; in drinking water; site: liver; lesion: mesenchymal hemangio-sarcoma, -pericytoma, or -endothelioma, malignant; dosed 176 weeks; study length 176 weeks
endpoint: TD50

**Query** Need TD50 of CN(C)N=O , thanks.
**Result** 0.712 mg/kg/day

---

System: rodent lifetime carcinogenesis bioassay, tumor incidence TD50
Assay: carcinogenic potency in animals, long-term in vivo studies, CPDB compilation (AID 1745844)
Conditions: mouse; strain Swiss; females; by gavage; site: liver; lesion: hepatoma, benign; dosed 52 weeks; study length 122 weeks
endpoint: TD50 (mg/kg/day)
Write the number in mg/kg/day without appending the unit.

**Query** Need TD50 of CCCCC/C=N/N(C)C=O , thanks.
**Result** 23.3

---

System: rodent lifetime carcinogenesis bioassay, tumor incidence TD50
Assay: carcinogenic potency in animals, long-term in vivo studies, CPDB compilation (AID 1745844)
Details: rat; strain Fischer 344; females; in feed; site: liver; lesion: several types; types named in the paper; dosed 110 weeks; study length 133 weeks
endpoint: TD50

**Query** Need TD50 of CN(C)CCN(Cc1cccs1)c1ccccn1 , thanks.
**Result** 7.65 mg/kg/day

---

System: rodent lifetime carcinogenesis bioassay, tumor incidence TD50
Assay: carcinogenic potency in animals, long-term in vivo studies, CPDB compilation (AID 1745844)
Conditions: mouse; strain CD-1 HaM/ICR; females; in feed; site: any site (literature study); lesion: several types; types named in the paper; dosed 77 weeks; study length 81 weeks
The source made the active and inactive calls. No rule for the calls is given here.
endpoint: TD50

**Query** Need TD50 of Cc1cccc(N)c1 , thanks.
**Result** 1950 mg/kg/day (inactive)

---

TD50 for assorted molecules
Test system: rodent lifetime carcinogenesis bioassay, tumor incidence TD50
Assay: carcinogenic potency in animals, long-term in vivo studies, CPDB compilation (AID 1745844)
Conditions: mouse; strain B6C3F1; males; by gavage; site: liver; lesion: hepatocellular adenoma + hepatocellular carcinoma; dosed 104 weeks; study length 104 weeks

INSERT INTO assay_data (molecule, endpoint, experimental_result) VALUES
  ('Clc1cc2c(cc1Cl)Oc1cc(Cl)c(Cl)cc1O2', 'TD50', '8.68e-05 mg/kg/day');

**Query** Need TD50 of COC1COC(OC2COC(OC3COC(OC4COC(OC)C(OS(=O)(=O)O)C4OS(=O)(=O)O)C(OC4OC(C(=O)O)C(OC)C(OS(=O)(=O)O)C4OS(=O)(=O)O)C3OS(=O)(=O)O)C(OS(=O)(=O)O)C2OS(=O)(=O)O)C(OS(=O)(=O)O)C1OS(=O)(=O)O (configuration not stated) , thanks.
**Result** 499 mg/kg/day

---

Tested on: rodent lifetime carcinogenesis bioassay, tumor incidence TD50
Assay: carcinogenic potency in animals, long-term in vivo studies, CPDB compilation (AID 1745844)
Settings: mouse; strain B6C3F1; females; in feed; site: liver; lesion: hepatocellular carcinoma + neoplastic nodule; dosed 80 weeks; study length 90 weeks
endpoint: TD50

**Query** Need TD50 of COP(=O)(OC)OC(=CCl)c1cc(Cl)c(Cl)cc1Cl , thanks.
**Result** 1070 mg/kg/day

---

System: rodent lifetime carcinogenesis bioassay, tumor incidence TD50
Assay: carcinogenic potency in animals, long-term in vivo studies, CPDB compilation (AID 1745844)
Conditions: hamster; strain Syrian Golden; males; in drinking water; site: liver; lesion: angioma; dosed 91 weeks; study length 91 weeks
endpoint: TD50 (mg/kg/day)
Write the number in mg/kg/day without appending the unit.

**Query** API: value(readout= TD50, system= rodent lifetime carcinogenesis bioassay, tumor incidence TD50, query= CN(C)N )
**Result** 975

---

Tested on: rodent lifetime carcinogenesis bioassay, tumor incidence TD50
Experiment: carcinogenic potency in animals, long-term in vivo studies, CPDB compilation (AID 1745844)
Conditions: mouse; strain C17; males; by gavage; site: forestomach; lesion: squamous-cell carcinoma; dosed 40 weeks; study length 104 weeks
endpoint: TD50

**Query** Need TD50 of O=NN1CCN(N=O)CC1 , thanks.
**Result** 2.01 mg/kg/day
